tested on: Klebsiella pneumoniae; details: Concentration 20 uM; ASSAY_TEST Inhibition of Bacterial Growth; detection method Absorption (OD600); MEDIA CAMHB; plate type 384well; NBS; CORNING #3640; time 18 hr
Entries with a potency or affinity are not part of this list.
Observable: Inhibition

Answered examples (6):
Compound	Observable	Reported
CC(c1cc2ccccc2s1)N(O)C(N)=O (centres undefined) [ZILEUTON]	Inhibition	4.07%
CNC(=C[N+](=O)[O-])NCCSCc1csc(CN(C)C)n1 [NIZATIDINE]	Inhibition	14.45%
CCC1(c2ccccc2)C(=O)NCNC1=O [PRIMIDONE]	Inhibition	7.75%
CSc1ccc2c(c1)N(CCC1CCCCN1C)c1ccccc1S2.Cl (centres undefined) [THIORIDAZINE HYDROCHLORIDE]	Inhibition	9.7%
CCS(=O)(=O)CCn1c([N+](=O)[O-])cnc1C [TINIDAZOLE]	Inhibition	6.48%
CCN1CC(CCN2CCOCC2)C(c2ccccc2)(c2ccccc2)C1=O.Cl (centres undefined)	Inhibition	1.35%

Entry `CN1CCN(c2nc3cc(C(F)(F)F)ccc3n3cccc23)CC1.O=C(O)/C=C\C(=O)O.O=C(O)/C=C\C(=O)O` , Inhibition reported as 7.65%

Entry CNNCc1ccc(C(=O)NC(C)C)cc1.Cl [PROCARBAZINE HYDROCHLORIDE] , Inhibition reported as 8%

Entry CN(C)C(=O)Oc1ccc[n+](C)c1.[Br-] [PYRIDOSTIGMINE BROMIDE] , Inhibition reported as 3.02%

* * *

The compounds listed here are annotated with their Inhibition.
test system: Cryptococcus neoformans; details: Concentration 20 uM; ASSAY_TEST Inhibition of Fungal Growth; detection method Resazurin; Absorption (OD600-OD570); plate type 384well; NBS; CORNING #3640
Entries with a potency or affinity are not part of this list.
API: value field is a number in %; no unit string.

Compound	Unit Tag	Inhibition
CN(C)CCN(Cc1ccccc1)c1ccccn1.Cl [TRIPELENNAMINE HYDROCHLORIDE]	%	2.92
CCN(CC)CCOC(=O)c1ccc(N)cc1.Cl [PROCAINE HYDROCHLORIDE]	%	-2.16
C[C@H]1C[C@@H]2[C@H]([C@@H](O)C[C@@]3(C)[C@H]2CC[C@]3(O)C(=O)CO)[C@@]2(C)C=CC(=O)C=C12	%	-7.56

Now, please, on to the next compound.
Entry `CCC1(c2ccccc2)C(=O)NCNC1=O` , Inhibition reported as 0.81

* * *

system: Candida albicans; conditions: 20 µM
Potency and affinity values are given separately.
The compounds listed here are annotated with their Inhibition.
API: value field is a number in %; no unit string.

Answered examples (3):
Compound	Target Desc	Observable	Reported
CN1CCN(C2=Nc3ccccc3Oc3ccc(Cl)cc32)CC1.O=C(O)CCC(=O)O [LOXAPINE SUCCINATE]	Candida albicans	Inhibition	2.62
Cl.O=C(c1ccc(OCCN2CCCCC2)cc1)c1c(-c2ccc(O)cc2)sc2cc(O)ccc12 [RALOXIFENE HYDROCHLORIDE]	Candida albicans	Inhibition	0.43
CC#C[C@]1(O)CC[C@H]2[C@@H]3CCC4=CC(=O)CCC4=C3[C@@H](c3ccc(N(C)C)cc3)C[C@@]21C	Candida albicans	Inhibition	3.98

Now, please, on to the next compound.
Measured Inhibition (Candida albicans), entry CN(C)C(=O)Oc1ccc[n+](C)c1.[Br-] [PYRIDOSTIGMINE BROMIDE] : 1.97

* * *

The compounds listed here are annotated with their Inhibition.
system: Candida albicans; conditions: 20 µM
Entries with a potency or affinity are not part of this list.
API: value field is a number in %; no unit string.

Answered examples (5):
Compound	Target Desc	Reported
CC(C)c1nc(CN(C)C(=O)N[C@H](C(=O)N[C@@H](Cc2ccccc2)C[C@H](O)[C@H](Cc2ccccc2)NC(=O)OCc2cncs2)C(C)C)cs1	Candida albicans	1.82
Cl.O=C1c2c(O)ccc(O)c2C(=O)c2c(NCCNCCO)ccc(NCCNCCO)c21	Candida albicans	-4.12
O=C1[C@H](CC[C@H](O)c2ccc(F)cc2)[C@@H](c2ccc(O)cc2)N1c1ccc(F)cc1	Candida albicans	-1
Nc1nc(Cl)nc2c1ncn2[C@H]1C[C@H](O)[C@@H](CO)O1	Candida albicans	1.93
COc1ccc(C(=O)NCc2ccc(OCCN(C)C)cc2)cc1OC.Cl	Candida albicans	4.71

Measured Inhibition (Candida albicans), entry Sc1ncnc2nc[nH]c12 [MERCAPTOPURINE ANHYDROUS] : 11.2

Measured Inhibition (Candida albicans), entry CC(C)(C)NCC(O)COc1cccc2c1CC(O)C(O)C2 (configuration not stated) : 1.18

Measured Inhibition (Candida albicans), entry CC(=O)OCC(=O)[C@@]1(O)CC[C@H]2[C@@H]3C[C@H](C)C4=CC(=O)C=C[C@]4(C)[C@H]3[C@@H](O)C[C@@]21C [METHYLPREDNISOLONE ACETATE] : -0.69

* * *

tested on: Cryptococcus neoformans; conditions: Concentration 20 uM; ASSAY_TEST Inhibition of Fungal Growth; detection method Resazurin; Absorption (OD600-OD570); plate type 384well; NBS; CORNING #3640
Results with a measured potency or affinity are listed apart.
Observable: Inhibition (%)
API: value field is a number in %; no unit string.

Compound	Unit Tag	Inhibition
Cl.O.O=C1N(c2ccccc2)c2ccccc2C1(Cc1ccncc1)Cc1ccncc1	%	-6.67

Entry `CNCCCCOc1ccccc1Cc1ccccc1.Cl` , Inhibition reported as -8.24

Entry CN1C(=O)CC[C@H]1c1cccnc1 [COTININE] , Inhibition reported as -1.87

Entry CC(=O)OCC(=O)[C@@]1(O)CC[C@H]2[C@@H]3CCC4=CC(=O)CC[C@]4(C)[C@H]3C(=O)C[C@@]21C [CORTISONE ACETATE] , Inhibition reported as -0.31

Entry `C/C=C1/[C@H]2C=C(C)C[C@]1(N)c1ccc(O)nc1C2` , Inhibition reported as -7.02

Entry CCN(CC)CC(=O)Nc1c(C)cccc1C [LIDOCAINE] , Inhibition reported as -4.85

Entry CN(C)CCOC(c1ccc(Cl)cc1)c1ccccn1.O=C(O)/C=C\C(=O)O (stereo unspecified) [CARBINOXAMINE MALEATE] , Inhibition reported as 0.28

Entry CC(=O)O[C@H]1C[C@@H]2CC[C@@H]3[C@H](CC[C@@]4(C)[C@H]3C[C@H]([N+]3(C)CCCCC3)[C@@H]4OC(C)=O)[C@@]2(C)C[C@@H]1N1CCCCC1.[Br-] [VECURONIUM BROMIDE] , Inhibition reported as 2.54

Entry CC[C@]1(O)C[C@@H]2CN(CCc3c([nH]c4ccccc34)[C@@](C(=O)OC)(c3cc4c(cc3OC)N(C)[C@H]3[C@@](O)(C(N)=O)[C@H](O)[C@]5(CC)C=CCN6CC[C@]43[C@@H]65)C2)C1.O=S(=O)(O)O [VINDESINE SULFATE] , Inhibition reported as 0.45

Entry NC(=O)N1c2ccccc2CC(=O)c2ccccc21 [OXCARBAZEPINE] , Inhibition reported as -4.73

Entry O=C(O)c1cc(-c2ccc(F)cc2F)ccc1O [DIFLUNISAL] , Inhibition reported as -3.56

Entry `COC(=O)C1=C(C)NC(C)=C(C(=O)O[C@@H]2CCCN(Cc3ccccc3)C2)[C@@H]1c1cccc([N+](=O)[O-])c1.Cl` , Inhibition reported as -18.39

Entry `CN[C@@H]1[C@H](O)[C@H](NC)[C@H]2O[C@@]3(O)C(=O)C[C@@H](C)O[C@H]3O[C@@H]2[C@H]1O.Cl.Cl.Cl.O.O.O` , Inhibition reported as -1.83

Entry CCOC(=O)N1CCC(=C2c3ccc(Cl)cc3CCc3cccnc32)CC1 [LORATADINE] , Inhibition reported as -7.17

Entry COc1ccc(C2CNC(=O)C2)cc1OC1CCCC1 (stereo unspecified) [ROLIPRAM] , Inhibition reported as -5.22

Entry `COc1ccc(CN2CCN(C(c3ccc(F)cc3)c3ccc(F)cc3)CC2)c(OC)c1OC.Cl.Cl` , Inhibition reported as -36.76

* * *

test system: Klebsiella pneumoniae; details: Concentration 20 uM; ASSAY_TEST Inhibition of Bacterial Growth; detection method Absorption (OD600); MEDIA CAMHB; plate type 384well; NBS; CORNING #3640; time 18 hr
Entries with a potency or affinity are not part of this list.
Observable: Inhibition
Reply with the number and its unit after it.

Answered examples (5):
Compound	Inhibition
O.OC[C@H]1O[C@@H](n2cnc3c(NC4CCCC4)nc(Cl)nc32)[C@@H](O)C1O (some centres not stated)	3.81%
CCN(CC)CCNC(=O)c1cc(Cl)c(N)cc1OC.Cl	10.19%
O=S(=O)([O-])CCS.[Na+] [MESNA]	6.51%
C[C@@H](O)[C@H]1C(=O)N2C(C(=O)O)=C(S[C@@H]3CN[C@H](C(=O)N(C)C)C3)[C@H](C)[C@H]12 [MEROPENEM]	0.03%
CC(C)NCC(O)COc1ccc(CCOCC2CC2)cc1.Cl (configuration not stated) [BETAXOLOL HYDROCHLORIDE]	15.59%

Entry CN1CCN(C2=Nc3ccccc3Oc3ccc(Cl)cc32)CC1.O=C(O)CCC(=O)O [LOXAPINE SUCCINATE] , Inhibition reported as 7.32%

From: ChEMBL document CHEMBL4513141
